Source: PubChem BioAssay AID1996

Below: a set of entries, each annotated with reported log10(solubility kinetic).
conditions: buffer; pH 7.4; 200.0 µM
Log scale reminder: solubility kinetic in µg/mL, then log10 taken.

Here is how some compounds turned out for log10(solubility kinetic).
1) O=C(Nc1ccccc1)Nc1ccccc1C(=O)NCCCN1CCOCC1: 1.67
2) Cc1ccc(C)c(S(=O)(=O)N(C)Cc2cccs2)c1: 1.00
3) Oc1c(I)cc(Cl)c2cccnc12: -0.10
4) O=C(Oc1ccccc1)c1cccnc1Oc1ccccc1: 1.32
5) O=C(Nc1ccccc1C(=O)Nc1ccccc1)c1cccs1: 0.00

Exercise: Entry COc1cc(C(C)=O)ccc1OCC(=O)Nc1cc(C)on1 has what log10(solubility kinetic)?
Key: 0.92
